The measured values listed here are drawn from the supplement of paper PMC9732359.

Assay: protein stability index of a GFP-peptide fusion (yeast GPS) (PSI 1-4); higher = more stable; sorted into four equal gates, so the index is relative within each strain
Conditions: doa10∆
The reader will find reported protein stability index values listed item by item below.
Form field (numeric): enter value without unit.

APLNLEIPAYEFDGDKV [RIP1]: 2.6
YPDLCSIYDKWTDPNLK [RPN1]: 2.69
IEEHPTVVDAIDNSDEI [IRR1]: 3.35

Input MKTKTINAQGEEIVVVA [PRP8] . Output protein stability index: 1.72

protein stability index for AIFPYQDPIFGSVLLTL [ECM29] is 1.69

Lab note: AYPGKLICPQYGTENKD [CSL4] gave protein stability index of 1.89

Per the records, this sequence ( LWDSKELEQLVEFNRKV [RPN3] ) has protein stability index equal to 2.97

For reference, reported protein stability index for LRNKIAGYTTHLMKRIQ [RPS17A] stands at 2.44

// recorded protein stability index for DEQDDDNVNSTTGSIFE [BRN1] : 2.88

DVNDVLTKYIRSKNLIF [GRR1] has a reported protein stability index of 2.68

Short answer for ISVARKIYDAFPQTAML [DIS3] : protein stability index was 2.41

Item: STSYHLNSTLESLYDLI [MED6] | protein stability index: 2.86

Measured protein stability index, VSKEQFLKDADVECIKA [YJL039C/NUP192] : 1.45

# protein stability index of AGGGESDSALILMYKGF [UBP6] = 3.29

Memo: IGTKRFDSEKSGDREVQ [RPT5] , reported protein stability index: 3.15

Kindly note the recorded protein stability index for LGLGIAFAGSKNDEVLG [RPN1] , which is 3.09

// sample FTGEKPIITGSTSTSSS [MED8] , its protein stability index was 2.71

Looking up RLGDLGVIDDSFDVAIS [SMC4] , I found its protein stability index recorded as 2.85

The recorded protein stability index for SLYIFFTTLLESKQDGL [YML103C/NUP188] is 2.29

Record IQNQSPQFNSPYDSNNS [SWI1] . Reported protein stability index: 2.97

Looking up KGPRFRKLTSQEINDRL [PRE8] , I see its protein stability index listed as 3.09

Note to self: protein stability index recorded for VHESLVTQSNILSQQFD [SRB8] was 2.71

Record summary for MDHEEARRKHVSGKILG [RPS22A] : reported protein stability index = 2.83

What the record says about RIMSTRCMMAAQYFYSG [DIS3] : protein stability index is 1.67

For this sequence ( LEEEFVSNSEILKPFEK [RPT2] ), measured protein stability index is 2.85

Lookup result for RQQQENSSKIITLDLSN [SMC1] ; measured protein stability index: 3.22

====

Parameter protein stability index: see the listing below.
Assay: protein stability index of a GFP-peptide fusion (yeast GPS) (PSI 1-4); higher = more stable; sorted into four equal gates, so the index is relative within each strain
Conditions: doa10∆
Note: the reply should be a number with no unit written.

AGKSLVSKSEPKFFLGE [QCR2]: 3.41
VTNALDNIDEKVVKAIR [NUT1]: 3.04
SGITDPYEMYKYVHVSE [FAS2]: 2.33

The sequence listed as DAPFNKVVLKALFLSKI [RPL18A] shows protein stability index equal to 1.55

The sequence VRAEELNISGEFFRNKL [RPL16A] showed protein stability index equal to 3.67

Input SILPTRDDLFVRNLQGI [NUT1] . Output protein stability index: 1.69

Form: sequence = SRILYKAIRGMVSHKTA [RPL16B] ; protein stability index = 1.26

The measured protein stability index associated with YVNDVAIYNNPTRIRTK [RRI2] reads 1.81

====

Listed below: protein stability index values for each entry.
Experiment: protein stability index of a GFP-peptide fusion (yeast GPS) (PSI 1-4); higher = more stable; sorted into four equal gates, so the index is relative within each strain
Conditions: pdr5∆
Reply briefly: the number, and no unit.

// known answers, use as guide
TKIIMATNRPDTLDPAL [RPT4]: 3
KVKKPLKYLSVEEVIKL [PRE7]: 2.63
SAPAPAAAAPAPVAAAA [FAS2]: 3.21
IFEISLQRKDYTSIVQC [YML103C/NUP188]: 1.75

Pending sequence:
Looking up KTYALESINNVVDQLWS [RPN2] , I see its protein stability index listed as 2.9

====

Assay: protein stability index of a GFP-peptide fusion (yeast GPS) (PSI 1-4); higher = more stable; sorted into four equal gates, so the index is relative within each strain
Conditions: ubr1∆
# binarize protein stability index: threshold 3 inclusive, high side Fulfilled, low side Not fulfilled

NLQIRQLFNWCLMRSLH [DSN1]: Not fulfilled
VPTIGVVNSNFAKEHNA [YJR042W/NUP85]: Not fulfilled
ELKTRDATNTSYKMIQL [SWP82]: Fulfilled
SSAKRSKNTAVSKVQKR [SRP72]: Not fulfilled
DMLKYKEDEPVVARRSN [ITC1]: Not fulfilled

hey, is protein stability index for this one >= 3? PIPIPAFADRLGQYVQA [PRE10]
Not fulfilled

// inclusive: protein stability index at least 3? input: LINEILLKSNDPLLSLY [RGR1]
Not fulfilled

Determine whether this sequence has protein stability index no lower than 3: KAKTTKKVVLRLECVKC [RPL42A]
Not fulfilled

Quick check, protein stability index >= 3? VSFNDSQSMVTNKENNI [YIL149C/MLP2]
Fulfilled

hey, is protein stability index for this one >= 3? LDDTTIPVGLMAQENSM [MCD1]
Not fulfilled

====

Test: protein stability index of a GFP-peptide fusion (yeast GPS) (PSI 1-4); higher = more stable; sorted into four equal gates, so the index is relative within each strain
Settings: doa10∆
Reported protein stability index values are given for each entry in this list.
Please give the numeric answer without any surrounding text.

Example results:
YVYRASKEVRGSKIRVM [RPL33A]: 2.75
VQNLRSWETKLKQNILE [CSN9]: 1.83
VRSFSKALDELKPEIEK [LRP1]: 3.39
KIPLFTFAKSKNYSRPS [SIR4]: 2.39
VPFIIAAMVIMHLMALH [COB]: 2.08

Per the record, NSIWGSSLRKNASGNKR [ITC1] has protein stability index of 1.6

Recorded result, QRDLYKRKEELVSTLTT [SMC2] , protein stability index: 2.14

For record SLTQSVCDLALRFGEGA [PUP2] the listed protein stability index is 2.66

Record summary for HTPTIASYLTPLLEAKK [SSN2] : reported protein stability index = 3.04

The reported value for NFPDEDDDDSRKSAPVD [SKP1] in terms of protein stability index is 3.09

The sequence NAANVPVENIWADIFAK [RPP1A] showed protein stability index equal to 2.2

// field: protein stability index; key: KRSQKKHKKKHLKHENA [RPB4] ; value = 3.03

// SDGEDGHIPWHILAVKK [SSN2] : protein stability index value = 3.02

GET /value?item= DHNALPQRCTFAFEAID [POP1] &field=protein stability index returns 2.36

According to the records, this sequence PNLLFSMCGFEVRILPR [PRP8] displays protein stability index of 2.41

====

Test: protein stability index of a GFP-peptide fusion (yeast GPS) (PSI 1-4); higher = more stable; sorted into four equal gates, so the index is relative within each strain
Details: pdr5∆
Tag: t if measured protein stability index is not below 3, f if it is.

Known results for sequences:
NEQLTLLSKKHGQLKLS [RPN5]: f
WTMAFRTMDDIKDSVRE [ECM29]: f
GCLNFVDENDEVLLAGF [RPS23A]: f
NTSSLQSFQNPFTASQS [YIL149C/MLP2]: f
GEICKNYELEKIADNIS [YDL116W/NUP84]: t

Now let's try a different one.
Would you say NGAFQNSSNLSYNNTGI [RRP4] shows protein stability index at minimum 3?
f

====

Test: protein stability index of a GFP-peptide fusion (yeast GPS) (PSI 1-4); higher = more stable; sorted into four equal gates, so the index is relative within each strain
Conditions: san1∆
Use yes when the recorded protein stability index is no lower than 3; use no when it is lower.

CDVFWVQKDTAIIRLHP [POP1]: no

Hello, I need to know if GKILLKGDNITLITSAD [SME1] has measured protein stability index not below 3. Thanks!
no

Decide: is the reported value of protein stability index for VSSSKNKKSEENEMIKP [SWP82] equal to or greater than 3?
yes

Determine whether measured protein stability index meets or exceeds 3 for KIAERSLLLKNYLNDMH [SKP1]
no

I'd appreciate it if you could say whether VNRQSPLFFVDLKLLFN [RGR1] has protein stability index at least equal to 3.
no

Hello, I need to know if HEVVQDDSFSLLRIQML [PCI8] has measured protein stability index not below 3. Thanks!
no

protein stability index >= 3 for EVKEQLGILKKKRFDEF [SMC4] ?
no

Decide: protein stability index of SKNELKKAFTSYDRTLL [RPS16A] >= 3?
yes

// inclusive: protein stability index at least 3? input: LAAPQLVQMYIGEGAKL [RPT5]
no

Exam item: decide whether the reported protein stability index for FEGCYYTPEESAWIWPM [RPC25] is at least 3.
no
